target.system: HA1 adenosine receptor (Homo sapiens)
experimental.details: Human adenosine A1 receptor affinity (Ki hA1)
Assay type: binding
assay.conditions: affinity to human adenosine A1 receptor
parameter: Ki (nM)
The figure you give is taken to be in nM; do not add the unit.

Notebook: COc1ccccc1CNC(=O)c1cc(N)n2nc(-c3ccoc3)nc2c1 , Ki read as 164

Notebook: CCCCNC(=O)c1cc(N)n2nc(-c3ccc(Br)o3)nc2c1 , Ki read as 345

Notebook: CCN(Cc1ccncc1)C(=O)c1cc(N)n2nc(-c3nccs3)nc2c1 , Ki read as 1330

Notebook: COc1ccc(-c2nc3cc(C(=O)N(C)CCc4ccccc4)cc(N)n3n2)s1 , Ki read as 295

Notebook: Cc1ccc(-c2nc3cc(C(=O)NCc4ccccc4)cc(N)n3n2)s1 , Ki read as 90.3

Notebook: CN(CCc1ccccc1)C(=O)c1cc(N)n2nc(-c3nccs3)nc2c1 , Ki read as 1220

Notebook: COc1cc(CNC(=O)c2cc(N)n3nc(-c4ccc(C)o4)nc3c2)cc(OC)c1OC , Ki read as 2440

Notebook: CCN(CC)CCN(CC)C(=O)c1cc(N)n2nc(-c3ccc(Br)o3)nc2c1 , Ki read as 488

Notebook: Nc1cc(C(=O)NCc2ccc(F)cc2)cc2nc(-c3ccc(Cl)o3)nn12 , Ki read as 289

* * *

target.system: HA1 adenosine receptor (Homo sapiens, UniProt P30542)
Sequence (P30542 whole entry): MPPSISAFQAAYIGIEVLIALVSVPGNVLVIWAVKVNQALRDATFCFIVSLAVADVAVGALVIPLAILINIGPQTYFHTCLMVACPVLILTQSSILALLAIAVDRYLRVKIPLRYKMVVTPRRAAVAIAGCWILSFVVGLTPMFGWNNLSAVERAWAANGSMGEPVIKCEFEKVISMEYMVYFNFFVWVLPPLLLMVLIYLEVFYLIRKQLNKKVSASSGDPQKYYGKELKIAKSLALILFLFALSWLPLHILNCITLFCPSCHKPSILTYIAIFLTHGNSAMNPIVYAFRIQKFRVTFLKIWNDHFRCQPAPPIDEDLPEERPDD
experimental.details: Human adenosine A1 receptor affinity (Ki hA1)
Assay type: binding
assay.conditions: affinity to human adenosine A1 receptor
parameter: Ki (nM)
The figure you give is taken to be in nM; do not add the unit.

Notebook: CCCCN(CC)C(=O)c1cc(N)n2nc(-c3nccs3)nc2c1 , Ki read as 1540

Notebook: CN(C(=O)c1cc(N)n2nc(-c3ccccn3)nc2c1)C1CCCCC1 , Ki read as 1170

Notebook: CCCCCCNC(=O)c1cc(N)n2nc(-c3ccccn3)nc2c1 , Ki read as 316

Notebook: Nc1cc(C(=O)N2CCc3ccccc3C2)cc2nc(-c3ccccn3)nn12 , Ki read as 2140

Notebook: Cc1ccc(-c2nc3cc(C(=O)N4CCCCC4)cc(N)n3n2)s1 , Ki read as 772

Notebook: COc1ccccc1CNC(=O)c1cc(N)n2nc(-c3ccccc3)nc2c1 , Ki read as 48.3

Notebook: CCCCN(CC)C(=O)c1cc(N)n2nc(-c3ccc(Br)o3)nc2c1 , Ki read as 129

Notebook: COc1ccccc1CNC(=O)c1cc(N)n2nc(-c3sccc3C)nc2c1 , Ki read as 112

Notebook: CC(NC(=O)c1cc(N)n2nc(-c3ccccc3)nc2c1)c1ccccc1 (stereo not drawn) , Ki read as 72.6

* * *

target.system: human adenosine A2A receptor (Homo sapiens, UniProt P29274)
Construct: expressed in transfected cells; host or cells: CHO cells, Semliki Forest virus expression system; membrane preparation
Sequence (P29274 whole entry): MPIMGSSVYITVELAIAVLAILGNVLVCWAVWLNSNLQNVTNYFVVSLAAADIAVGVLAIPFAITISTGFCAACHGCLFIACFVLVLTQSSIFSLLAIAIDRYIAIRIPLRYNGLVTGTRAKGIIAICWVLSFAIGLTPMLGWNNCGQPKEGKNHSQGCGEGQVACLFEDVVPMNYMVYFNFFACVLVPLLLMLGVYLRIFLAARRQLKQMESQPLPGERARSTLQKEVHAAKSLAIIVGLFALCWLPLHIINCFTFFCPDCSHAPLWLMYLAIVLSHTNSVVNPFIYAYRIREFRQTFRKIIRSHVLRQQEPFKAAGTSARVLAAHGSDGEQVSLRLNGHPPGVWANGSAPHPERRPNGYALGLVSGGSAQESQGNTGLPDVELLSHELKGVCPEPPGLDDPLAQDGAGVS
experimental.details: Human adenosine A2A receptor [3H]-SCH-58261 binding assay
assay.conditions: calculated ratio of the affinity to the HA1 receptor to the HA2a receptor
Please respond with true when measured selectivity (A1/A2a) is strictly beneath 10, and with false in all other cases.

Identify whether the compound Nc1cc(C(=O)NCc2ccccc2Br)cc2nc(-c3ccccc3O)nn12 records selectivity (A1/A2a) below 10. true

Identify whether the compound Nc1cc(C(=O)N2CCCCC2)cc2nc(-c3ccccc3)nn12 records selectivity (A1/A2a) below 10. false

Identify whether the compound CN(C)C(=O)c1cc(N)n2nc(-c3ccc(Br)o3)nc2c1 records selectivity (A1/A2a) below 10. false

Identify whether the compound Nc1cc(C(=O)NCc2ccccc2)cc2nc(-c3cc(Br)co3)nn12 records selectivity (A1/A2a) below 10. true

Identify whether the compound Cn1cccc1-c1nc2cc(C(=O)NC3CCCCC3)cc(N)n2n1 records selectivity (A1/A2a) below 10. true

Identify whether the compound CCCCN(CC)C(=O)c1cc(N)n2nc(-c3nccs3)nc2c1 records selectivity (A1/A2a) below 10. false

Identify whether the compound CC1CCCC(C)N1C(=O)c1cc(N)n2nc(-c3nccs3)nc2c1 (centres unmarked) records selectivity (A1/A2a) below 10. true

Identify whether the compound Nc1cc(C(=O)N2CCc3ccccc3C2)cc2nc(-c3ccc(Br)o3)nn12 records selectivity (A1/A2a) below 10. false

Identify whether the compound Cc1ccc(-c2nc3cc(C(=O)NCc4ccc(F)cc4)cc(N)n3n2)o1 records selectivity (A1/A2a) below 10. true

Identify whether the compound Cc1ccc(-c2nc3cc(C(=O)N(C)C4CCCCC4)cc(N)n3n2)s1 records selectivity (A1/A2a) below 10. false

Identify whether the compound CCN(CC)C(=O)c1cc(N)n2nc(-c3sccc3C)nc2c1 records selectivity (A1/A2a) below 10. true

* * *

target.system: HA1 adenosine receptor (Homo sapiens)
experimental.details: Human adenosine A1 receptor affinity (Ki hA1)
Format: binding
assay.conditions: affinity to human adenosine A1 receptor
parameter: Ki (nM)
The figure you give is taken to be in nM; do not add the unit.

Notebook: Cc1ccc(-c2nc3cc(C(=O)N(C)Cc4ccccc4)cc(N)n3n2)s1 , Ki read as 170

Notebook: CCN(CC)C(=O)c1cc(N)n2nc(-c3ccccc3)nc2c1 , Ki read as 1960

Notebook: COc1cc(CNC(=O)c2cc(N)n3nc(-c4ccc(Br)o4)nc3c2)cc(OC)c1OC , Ki read as 1940

Notebook: Nc1cc(C(=O)N2CCCCC2)cc2nc(-c3cccs3)nn12 , Ki read as 1460

Notebook: CC(C)N(C(=O)c1cc(N)n2nc(-c3ccc(Br)o3)nc2c1)C1CCCCC1 , Ki read as 77.3

Notebook: CCCCN(Cc1ccccc1)C(=O)c1cc(N)n2nc(-c3cccnc3)nc2c1 , Ki read as 900

Notebook: Cc1ccc(-c2nc3cc(C(=O)N(Cc4ccccc4)C(C)C)cc(N)n3n2)s1 , Ki read as 178

Notebook: Cc1ccc(-c2nc3cc(C(=O)NCc4ccccc4)cc(N)n3n2)o1 , Ki read as 299

Notebook: Nc1cc(C(=O)NCCc2ccccc2F)cc2nc(-c3ccccn3)nn12 , Ki read as 204

Notebook: CCN(Cc1ccccc1)C(=O)c1cc(N)n2nc(-c3ccc(Cl)o3)nc2c1 , Ki read as 37.7

Notebook: CCCCNC(=O)c1cc(N)n2nc(-c3sccc3C)nc2c1 , Ki read as 133

Notebook: COc1ccc(-c2nc3cc(C(=O)NCc4ccccc4Br)cc(N)n3n2)s1 , Ki read as 85.7

Notebook: CC(NC(=O)c1cc(N)n2nc(-c3ccccn3)nc2c1)c1ccccc1 (stereo not drawn) , Ki read as 120

Notebook: CCN(Cc1ccccc1)C(=O)c1cc(N)n2nc(-c3cccnc3)nc2c1 , Ki read as 993

Notebook: Nc1cc(C(=O)N(CC(F)(F)F)CC(F)(F)F)cc2nc(-c3ccc(Br)o3)nn12 , Ki read as 577

Notebook: CCN(CC)C(=O)c1cc(N)n2nc(-c3ccco3)nc2c1 , Ki read as 2380

Notebook: COc1ccc(-c2nc3cc(C(=O)NCCc4ccccc4Cl)cc(N)n3n2)s1 , Ki read as 97.4

Notebook: CC1CCCCN1C(=O)c1cc(N)n2nc(-c3nccs3)nc2c1 (stereo not drawn) , Ki read as 1980

Notebook: CN(Cc1ccccc1)C(=O)c1cc(N)n2nc(-c3ccccn3)nc2c1 , Ki read as 288

Notebook: CC1CC(C)CN(C(=O)c2cc(N)n3nc(-c4nccs4)nc3c2)C1 (stereo not drawn) , Ki read as 1730

Notebook: Cc1ccsc1-c1nc2cc(C(=O)NC3CCc4ccccc43)cc(N)n2n1 (stereo not drawn) , Ki read as 228

Notebook: Cc1ccc(-c2nc3cc(C(=O)N4CCOCC4)cc(N)n3n2)s1 , Ki read as 2920

Notebook: NC(=O)C1CCN(C(=O)c2cc(N)n3nc(-c4ccc(Cl)o4)nc3c2)CC1 , Ki read as 540

Notebook: CCN(C)C(=O)c1cc(N)n2nc(-c3ccc(Cl)o3)nc2c1 , Ki read as 459

Notebook: Nc1cc(C(=O)N2CCCC2)cc2nc(-c3ccc(Cl)o3)nn12 , Ki read as 770

Notebook: Cc1ccsc1-c1nc2cc(C(=O)NCc3ccccc3Cl)cc(N)n2n1 , Ki read as 131

Notebook: CC(C)N(C(=O)c1cc(N)n2nc(-c3ccc(Br)o3)nc2c1)C(C)C , Ki read as 229

Notebook: CN(Cc1ccccc1)C(=O)c1cc(N)n2nc(-c3ccc(Br)o3)nc2c1 , Ki read as 42.2

Notebook: COc1ccccc1CNC(=O)c1cc(N)n2nc(-c3ccc(C)o3)nc2c1 , Ki read as 111

Notebook: Nc1cc(C(=O)NCc2ccccc2Br)cc2nc(-c3ccoc3)nn12 , Ki read as 231

Notebook: C=CCN(CC=C)C(=O)c1cc(N)n2nc(-c3ccc(Br)o3)nc2c1 , Ki read as 116

Notebook: CC1CCCN1C(=O)c1cc(N)n2nc(-c3ccc(Br)o3)nc2c1 (stereo not drawn) , Ki read as 286

Notebook: Nc1cc(C(=O)NCc2ccccc2Cl)cc2nc(-c3ccco3)nn12 , Ki read as 58.7

Notebook: CC(C)N(Cc1ccccc1)C(=O)c1cc(N)n2nc(-c3ccc(Cl)o3)nc2c1 , Ki read as 25.1

Notebook: COc1ccccc1CNC(=O)c1cc(N)n2nc(-c3ccccn3)nc2c1 , Ki read as 88.1

Notebook: Nc1cc(C(=O)N(Cc2ccccc2)Cc2ccccc2)cc2nc(-c3nccs3)nn12 , Ki read as 128

FYI, the data here is from patent US6506772B1.
